// reported protein stability index for each item listed
B1: ANKRD9 (parent)
chain: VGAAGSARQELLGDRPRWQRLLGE

Variants of: B1
Test: protein stability index of a GFP-peptide fusion (GPS, HEK-293T) (PSI 1-6); higher = more stable;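 also: lentivirally expressed fusions sorted by FACS into six bins by GFP to DsRed ratio, PSI derived from sequencing read proportions per bin multiplied by bin number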
Details: c terminus: a fixed tail appended
Give a plain numeric answer without units written out.

Consider the following illustrative entries.
Lookup: Recall and state the measured protein stability index for R15P .
Found: 3.11

Lookup: Recall and state the measured protein stability index for A7E .
Found: 5

Lookup: Recall and state the measured protein stability index for W18Q .
Found: 4.1

Lookup: Recall and state the measured protein stability index for G23W .
Found: 2.64

Others:
Lookup: Recall and state the measured protein stability index for E10T .
Found: 2.39

Lookup: Recall and state the measured protein stability index for G13Y .
Found: 2.77

Lookup: Recall and state the measured protein stability index for G2V .
Found: 2.33

Lookup: Recall and state the measured protein stability index for A3H .
Found: 2.91

Lookup: Recall and state the measured protein stability index for W18Y .
Found: 3.78

Lookup: Recall and state the measured protein stability index for V1F .
Found: 2.7
